- experiment: mitochondrial membrane potential change in A549 cells, profiling panel, cell-based, JC-1 fluorescence, basal, 24 h, 100 nL (AID 1138);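 also: A549 lung adenocarcinoma cells under basal conditions with no added stimulus; test concentration not given here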
- cond: higher = more signal

molecule	z-score
CC(C)C[C@@H]1NC(=O)[C@@H]2C[C@H](C(=O)NCCCCCC[N+](C)(C)C)[C@H](c3cccc(OCCO)c3)N2C1=O	-0.547
O=C1O[C@H](c2ccccc2)[C@H](c2ccccc2)N2[C@H]1[C@@H](C(=O)N1CCCCCCC1)[C@]1(C(=O)Nc3ccc(C#CC4(O)CCCCCC4)cc31)[C@H]2c1ccc(O)cc1	0.706
C=C(CCCC)C(=O)CC[C@@H](OC(=O)c1cccnc1)c1ccc(OCCO)cc1	0.335
CCCCCN1CC=CC23O[C@@H]4/C=C\CCC(C)OC(=O)C4[C@H]2C(=O)N(CCCCCCO)[C@@H]3C1=O (some centres undefined)	1.03
COCCOC(=O)N1C(=O)[C@@]2(c3cc(C#CC4(O)CCCCCC4)ccc31)[C@H](C(=O)N1CCN(c3ncccn3)CC1)[C@H]1C(=O)O[C@H](c3ccccc3)[C@H](c3ccccc3)N1[C@@H]2c1ccccc1OCCO	-1.04
CO[C@H]1O[C@H](CO)[C@@H](OC(=O)CCc2ccccc2)[C@H](OC(=O)c2cc3ccccc3[nH]2)[C@H]1OC(=O)c1cc2ccccc2[nH]1	-0.201
CC(=O)NCCCC[C@@H]1NC(=O)[C@H]2C[C@@H](C(=O)NCCCCCNC(=O)CS)[C@@H](c3cccc(OCCO)c3)N2C1=O	0.0396
CC(C)N1CC=CC23O[C@@H]4/C=C\CCCOC(=O)C4[C@H]2C(=O)N(CCCCCCO)[C@@H]3C1=O (some centres undefined)	1.49
COCCCNC(=O)[C@@]1(Sc2ccc(C)cc2)CC(=O)N(C(C)C)[C@@H]1c1ccc(CO)cc1I	-0.0858
COC(=O)[C@@]1(Cc2ccccc2CN=[N+]=[N-])N=C(c2ccc(OCCCO)cc2)O[C@H]1c1ccccc1	-0.734
CN(C)CCCCNC(=O)[C@H]1C[C@H]2C(=O)N[C@@H](CCCC[N+](C)(C)C)C(=O)N2[C@H]1c1ccc(O)cc1	-0.247
O=C1O[C@H](c2ccccc2)[C@H](c2ccccc2)N2[C@H]1[C@@H](C(=O)O)[C@]1(C(=O)Nc3ccc(C#CC4(O)CCCCCC4)cc31)[C@H]2c1ccc(O)cc1	-0.697
CCOC(=O)C=Cc1cc(F)ccc1O	-1.8
O=C1OCCC/C=C\[C@H]2OC34C=CCN(c5ccc6ccccc6c5)C(=O)[C@H]3N(CCCO)C(=O)[C@@H]4C12 (some centres undefined)	0.333
CC(C)[C@H]1NC(=O)[C@@]23C(=O)N[C@@H](Cc4ccccc4)C2[C@H](C)[C@@]2(C)O[C@H]2C3/C=C/C/C=C\CNC(=O)[C@H](Cc2ccccc2)NC1=O (some centres undefined)	-0.182
O=C1C2C=CC(C(O)c3ccc(I)cc3)N(Nc3ccccc3)C2C(=O)N1c1ccccc1 (centres undefined)	-0.0457
CC=CC(O)C1C=CC2C(=O)NC(=O)C2N1Nc1ccccn1 (centres undefined)	0.514
NC(=O)[C@H]1[C@@H]2C(=O)O[C@@H](c3ccccc3)[C@@H](c3ccccc3)N2[C@@H](c2ccc(O)cc2)[C@]12C(=O)Nc1ccc(C#CC3=CCCCC3)cc12	-1.96
[N-]=[N+]=NCc1ccccc1C[C@]1(C(=O)N2CCOCC2)COC(c2ccc(OCCCO)cc2)=N1	2.41
COc1ccc(C(=O)Nc2cccc(CN3C(=O)[C@]4(O[C@H](CCn5cc([C@H](O)c6ccccc6)nn5)[C@@H]([Si](C)(C)c5ccc(OC)cc5)[C@@H]4C)c4ccccc43)c2)cc1	0.456
CN1C(=O)C2C(C1=O)C1C=C(CCCO)C2C(c2cccs2)N1Cc1cc2c(cc1Br)OCO2 (centres undefined)	0.903
COCCOC(=O)N1C(=O)[C@@]2(c3cc(C#CCNC(N)=O)ccc31)[C@H](c1ccc(O)cc1)N1[C@H](c3ccccc3)[C@H](c3ccccc3)OC(=O)[C@H]1[C@@H]2C(N)=O	0.902
COc1cc(C(O)C2C=CC3C(=O)N(Cc4ccccc4)C(=O)C3N2n2cnnc2)cc(OC)c1OC (centres undefined)	-0.417
O=C1C2C=CC(C(O)c3ccc4c(c3)OCO4)N(Nc3ccccc3)C2C(=O)N1c1ccccc1 (centres undefined)	0.279
NC(=O)N1C(=O)C2C(C1=O)C1C=C(CCCO)C2C(C2CC2)N1Cc1cccc(OC(F)(F)F)c1 (centres undefined)	0.541
CCOC(=O)C1=CCC(c2ccccc2)N(S(=O)(=O)c2ccc([N+](=O)[O-])cc2)C1 (centres undefined)	0.0562
C=C(/C(=C/C[C@H](OC(=O)c1ccncc1)c1ccccc1OCCO)c1cnc2ccccc2c1)C(C)C	0.707
Cc1cccc([C@H]2C[C@H]3C(I)=C[C@@H]2C(=O)[C@]32CO2)c1	0.33
CCOC(=O)C[C@H]1[C@H](OC(=O)c2ccccc2-c2ccccc2)[C@@H](NC(=O)c2ccccc2)c2cc(OCCCO)ccc2N1C(=O)c1ccccc1	0.629

Attribution: PubChem BioAssay
